- Assay notes: Pharmacokinetics following oral administration in the rat
- Type: in vivo
- Measurement setup: male, rat, plasma, po, 3 mg/kg, rat, 3 mg/kg oral, 6 h, mean; read-out: Concentration in Blood, Mean
Measured parameter: concentration at 6 h (µg/mL)
// note: answer is a bare numeric in µg/mL

*Q* For the compound Cc1c(Cc2ccccc2S(=O)(=O)c2ccc(F)cc2)c2cc(F)ccc2n1CC(=O)O [Compound 3] , what concentration at 6 h is on record?
*A* 1.14

*Q* Which measured concentration at 6 h value corresponds to Cc1c(Cc2ccccc2S(=O)(=O)c2ccc(Cl)cc2)c2cc(F)ccc2n1CC(=O)O [Compound 2] ?
*A* 0.64

*Q* Request the reported concentration at 6 h associated with Cc1c(Cc2ccc(S(C)(=O)=O)cc2)c2cc(F)ccc2n1CC(=O)O [Compound B, reference compound]
*A* 0.182

*Q* Name the recorded concentration at 6 h for Cc1c(Cc2ccc3ccccc3n2)c2cc(F)ccc2n1CC(=O)O [Compound A, reference compound] .
*A* 0.451

*Q* Consider the compound Cc1c(Cc2ccccc2S(=O)(=O)c2ccccc2)c2cc(F)ccc2n1CC(=O)O [Compound 1] and give its measured concentration at 6 h.
*A* 1.05

====

- Assay notes: Pharmacokinetics following oral administration in the rat
- Type: in vivo
- Measurement setup: male, rat, plasma, po, 3 mg/kg, rat, 3 mg/kg p.o, mean; read-out: AUCinf, Mean
Measured parameter: AUC(0-inf) (ng·h/mL)
# unit: ng·h/mL | format: bare number

*Q* # input molecule: Cc1c(Cc2ccccc2S(=O)(=O)c2ccc(Cl)cc2)c2cc(F)ccc2n1CC(=O)O ; wanted: its AUC(0-inf)
*A* 11700

*Q* Return reported AUC(0-inf); argument: Cc1c(Cc2ccc(S(C)(=O)=O)cc2)c2cc(F)ccc2n1CC(=O)O [Compound B, reference compound]
*A* 2200

*Q* Give the measured AUC(0-inf) of Cc1c(Cc2ccccc2S(=O)(=O)c2ccc(F)cc2)c2cc(F)ccc2n1CC(=O)O .
*A* 21100

*Q* Value lookup for AUC(0-inf); key = Cc1c(Cc2ccc3ccccc3n2)c2cc(F)ccc2n1CC(=O)O [Compound A, reference compound]
*A* 8160

*Q* Name the reported AUC(0-inf) value associated with the molecule Cc1c(Cc2ccccc2S(=O)(=O)c2ccccc2)c2cc(F)ccc2n1CC(=O)O
*A* 19300

====

- Assay notes: Pharmacokinetics following oral administration in the rat
- Format: in vivo
- Measurement setup: male, rat, plasma, po, 3 mg/kg, rat, 3 mg/kg p.o, mean; read-out: Cmax, Mean
Measured parameter: Cmax (ng/mL)
I only need the number, in ng/mL, no unit after it.

*Q* I have this molecule here, Cc1c(Cc2ccccc2S(=O)(=O)c2ccccc2)c2cc(F)ccc2n1CC(=O)O , and I need its recorded Cmax.
*A* 4160

*Q* Form field: reported Cmax of Cc1c(Cc2ccc(S(C)(=O)=O)cc2)c2cc(F)ccc2n1CC(=O)O [Compound B, reference compound]
*A* 381

*Q* # Cmax lookup, item Cc1c(Cc2ccc3ccccc3n2)c2cc(F)ccc2n1CC(=O)O [Compound A, reference compound]
*A* 1250

*Q* If you can, please state the reported Cmax value of Cc1c(Cc2ccccc2S(=O)(=O)c2ccc(Cl)cc2)c2cc(F)ccc2n1CC(=O)O .
*A* 2950

*Q* Returns the measured Cmax for the input molecule. Input: Cc1c(Cc2ccccc2S(=O)(=O)c2ccc(F)cc2)c2cc(F)ccc2n1CC(=O)O
*A* 4080

Where do these numbers come from? They come from patent US7999119B2.
